Data provenance: patent US20260258115A1

target: RSV postfusion F (postF), F ΔFP (Respiratory syncytial virus, UniProt P03420 26-513); experiment: BLI, IgG on anti-human IgG sensor, 100 nM antigen
pKd: −log10 of the molar value.
Listed here are binders together with their documented pKd.
Property Label: pKd

INSERT INTO measurements (binder, recorded_value) VALUES
  ('ADI-41558 (antibody, V domains shown, also called Ab 840; Antibody Number 840) VH: EVQLLESGGGLVKPGGSLRLSCEVSGFPFSDYYVSWIRQAPGKGLEWLSYSSRGGIYTNYADSVKGRFTISRDNDKNSLFLQMNSLRAEDTAVYYCARDRSDIWSGRVGFDYWGQGTLVTVSS VL: DIVMTQSPATLSLSPGERATLSCRASQSVSSSYLAWYQQKPGQAPRLLIYGASSRATGIPDRFSGSGSGTDFTLTISRLEPEDFAVYYCQQYNKSPPGYIFGPGTKVDIK', 9.15),
  ('ADI-41799 (antibody, V domains shown, also called Ab 910; Antibody Number 910) VH: QVQLVQSGAEVKKPGSSVKVSCQASGGTFSTHALSWVRQTPGHGLEWVGGVLPVFGATKYPRKFQGRVTITADKSTNTAYMELSSLRSDDTAVYYCARVVVHSTITTAKDFFSGVHDIWGQGTMVTVSS VL: DIRMTQSPSTLSASVGDRVTITCRASQTVSSWLAWYQQKPGKAPKLLIYQASSLESGVPSRFSGSGSGTEFTLTISGLQPDDFATYFCQHYNSYSPVTFGGGTKVEIK', 8.96);
